Tested on: EAhy926
Assay: MTT viability assay (IC50)
Type: cell-based, human
Details: EAhy926 treated at ~50% confluency (bottom lines)
Listed here are compounds together with their documented IC50.
reported.metric: IC50

compound	result
Cc1c(C)c2c(c(C)c1OC(=O)CCC(=O)O)CC[C@@](C)(CCC[C@H](C)CCC[C@H](C)CCCC(C)C)O2 [α-TOS, α-tocopheryl succinate, reference compound]	9.5 µM
Cc1c(C)c2c(c(C)c1OC(=O)CCC(=O)[O-])CCC(C)(CCCCCCCCCCC[P+](c1ccccc1)(c1ccccc1)c1ccccc1)O2 (centres unmarked) [MitoVE11S]	0.7 µM

###

System: Meso-2
Assay: MTT viability assay (IC50)
Type: cell-based, human
Settings: Meso-2, ~60% confluency
pIC50: −log10 of the molar value.
Listed here are compounds together with their documented pIC50.

compound	pIC50
Cc1c(C)c2c(c(C)c1OC(=O)CCC(=O)[O-])CCC(C)(CCCCCCCCCCC[P+](c1ccccc1)(c1ccccc1)c1ccccc1)O2 (stereo not drawn) [MitoVE11S]	5.62
Cc1c(C)c2c(c(C)c1OC(=O)CCC(=O)O)CC[C@@](C)(CCC[C@H](C)CCC[C@H](C)CCCC(C)C)O2 [α-TOS, α-tocopheryl succinate, reference compound]	4.54
Cc1c(C)c2c(c(C)c1OC(=O)CCC(=O)OCCCC[P+](c1ccccc1)(c1ccccc1)c1ccccc1)CCC(C)(CCCC(C)CCCC(C)CCCC(C)C)O2 (stereo not drawn) [VES4TPP]	4.55

These data points were gathered from patent US8598145B2.
